System: Human neural stem cells (hNSCs)
Assay: Neuronal differentiation of human neural stem cells (TUJ-1 staining), concentration response and combination index
Format: cell-based
Settings: Homo sapiens, Neural stem cell, read-out: EC50 when used alone, neuronal differentiation
Experimental: Mitogen-free test media with a positive control for neuronal differentiation was used along with basal media without growth factors as a negative control. […] The presence of synergy was determined by use of a combination index (CI). […] The CI is a quantitative measure of the nature of drug interactions, comparing the EC50's of two compounds, when each is assayed alone, to the EC50 of each compound when assayed in combination. […]
measured endpoint: EC50 (µM)
The reply should be a number in µM, with the unit left off.

Inquiry: Any idea what EC50 was measured for NC(=O)C[S+]([O-])C(c1ccccc1)c1ccccc1 (stereo not shown) [modafinil] ?
Reply text: 11
